- Tested on: P12-Ichikawa
- Measurement description: cell viability relative to DMSO control; higher = less cytotoxic
- Test parameters: RPMI 5 mM glucose + 10% FBS; 48 h; 0.00234 µM
Items are presented alongside their recorded cell viability.

[
  {
    "Molecule": "COc1ccc2cccc(CCNC(C)=O)c2c1",
    "cell viability [%]": 104
  },
  {
    "Molecule": "CN[C@@H](C)C(=O)N[C@H]1CCCC[C@H]2CC[C@@H](C(=O)N[C@@H](c3ccccc3)c3cn(CCCCc4ccc(CCCCn5cc([C@@H](NC(=O)[C@@H]6CC[C@@H]7CCCC[C@H](NC(=O)[C@H](C)NC)C(=O)N76)c6ccccc6)nn5)cc4)nn3)N2C1=O",
    "cell viability [%]": 104
  },
  {
    "Molecule": "NC\\1=N\\C(=O)N(\\C=N1)[C@H]2C[C@H](O)[C@@H](CO)O2",
    "cell viability [%]": 110
  },
  {
    "Molecule": "COc1ccc(Cn2ccc3ccc(C(=O)NO)cc32)cc1",
    "cell viability [%]": 114
  },
  {
    "Molecule": "CC(C)(C)C1=NC2=C([NH]1)C3=CC=C(F)C=C3C4=C2\\C=C/NC4=O",
    "cell viability [%]": 133
  },
  {
    "Molecule": "CCC(=O)O[C@@]1([C@H](C)C[C@H]2[C@@H]3C[C@H](F)\\C4=C\\C(=O)\\C=C/[C@]4(C)[C@@]3(F)[C@@H](O)C[C@]12C)C(=O)SCF",
    "cell viability [%]": 119
  },
  {
    "Molecule": "Cc1cnc(Nc2ccc(OCCN3CCCC3)cc2)nc1Nc1cccc([S+](=O)([O-])NC(C)(C)C)c1",
    "cell viability [%]": 116
  },
  {
    "Molecule": "CCCCOc1ccc(C(=O)Nc2ccc(F)cc2F)cc1",
    "cell viability [%]": 91.8
  },
  {
    "Molecule": "CCCn1c(=O)c2[nH]c(C34CC5CC3C[C@@H](C5)C4)nc2n(CCC)c1=O",
    "cell viability [%]": 113
  },
  {
    "Molecule": "CCc1cc(/C(C)=N/OCc2ccc(C3CCCCC3)c(C(F)(F)F)c2)ccc1CN1CC(C(=O)O)C1",
    "cell viability [%]": 99
  },
  {
    "Molecule": "Nc1ccc([S+](=O)([O-])Nc2ccccn2)cc1",
    "cell viability [%]": 105
  },
  {
    "Molecule": "CCOC(=O)c1ncn2c1CN(C)C(=O)c1cc(F)ccc1-2",
    "cell viability [%]": 113
  },
  {
    "Molecule": "CCOc1ccccc1OCCNC(C)Cc1ccc(OC)c([S+](N)(=O)[O-])c1 (configuration not stated)",
    "cell viability [%]": 111
  },
  {
    "Molecule": "CCCCc1oc2ccc(NS(C)(=O)=O)cc2c1C(=O)c1ccc(OCCCN(CCCC)CCCC)cc1",
    "cell viability [%]": 117
  },
  {
    "Molecule": "CC1OC(OC/2=C(/OC3=C(C(=CC(=C3)O)O)C2=O)C4=CC=C(O)C=C4)C(O)C(OC(C)=O)C1OC(C)=O (configuration not stated)",
    "cell viability [%]": 114
  },
  {
    "Molecule": "COc1ccc2cc(-c3[nH]c(-c4ccc([S+](C)[O-])cc4)nc3-c3ccncc3)ccc2c1 (configuration not stated)",
    "cell viability [%]": 112
  },
  {
    "Molecule": "c1ccc(-c2nn3c(c2-c2ccnc4cc(OCCN5CCOCC5)ccc24)CCC3)nc1",
    "cell viability [%]": 117
  }
]

====

- Test system: SEM cells
- Measurement description: cell viability relative to DMSO control; higher = less cytotoxic
- Test parameters: RPMI 5 mM glucose + 10% FBS; 48 h; 0.00234 µM
Items are presented alongside their recorded cell viability.

[
  {
    "Molecule": "C[Se]CCC(N)C(=O)O (stereo not drawn)",
    "Measurement units": "%",
    "cell viability": 83.9
  },
  {
    "Molecule": "CCCn1c(=O)c2[nH]c(-c3cnn(Cc4cccc(C(F)(F)F)c4)c3)nc2n(CC)c1=O",
    "Measurement units": "%",
    "cell viability": 89.9
  },
  {
    "Molecule": "CN(C(=O)c1ccc(F)cc1C(F)(F)F)C1CCN(c2nnc(-c3ccnn3C)c3ccccc23)CC1",
    "Measurement units": "%",
    "cell viability": 74.8
  },
  {
    "Molecule": "Cn1cc(-c2ccncc2)c(-c2ccc(OCc3ccc4ccccc4n3)cc2)n1",
    "Measurement units": "%",
    "cell viability": 126
  },
  {
    "Molecule": "COC1=CC=C(C=C1)C/2=C/OC3=CC(=CC=C3C2=O)O",
    "Measurement units": "%",
    "cell viability": 124
  },
  {
    "Molecule": "Cc1cnc(Nc2ccc(OCCN3CCCC3)cc2)nc1Nc1cccc([S+](=O)([O-])NC(C)(C)C)c1",
    "Measurement units": "%",
    "cell viability": 95.8
  },
  {
    "Molecule": "CCCCOc1ccc(C(=O)Nc2ccc(F)cc2F)cc1",
    "Measurement units": "%",
    "cell viability": 88.8
  },
  {
    "Molecule": "CCC1=C2C=C(OC(=O)N3CCC(CC3)N4CCCCC4)C=CC2=NC\\5=C1CN6C(=O)\\C7=C(/C=C56)[C@@](O)(CC)C(=O)OC7",
    "Measurement units": "%",
    "cell viability": 127
  },
  {
    "Molecule": "CN1C(=O)COc2c(C(=O)NC3CN4CCC3CC4)cc(Cl)cc21 (stereo not drawn)",
    "Measurement units": "%",
    "cell viability": 93.7
  },
  {
    "Molecule": "CC(Oc1ccc(O)cc1)(P(=O)(O)O)P(=O)(O)O",
    "Measurement units": "%",
    "cell viability": 110
  },
  {
    "Molecule": "CCC(CC)[C@H](NC(C)=O)[C@@H]1[C@H](O)[C@@H](C(=O)O)C[C@H]1NC(=N)N",
    "Measurement units": "%",
    "cell viability": 84.2
  },
  {
    "Molecule": "CCOc1cc2c(c(F)c1OCC)C(=N)N(CC(=O)c1cc(N3CCOCC3)c(OC)c(C(C)(C)C)c1)C2",
    "Measurement units": "%",
    "cell viability": 98.1
  },
  {
    "Molecule": "CO[C@@H]1[C@H](N(C)C(=O)c2ccccc2)C[C@H]2O[C@]1(C)n1c3ccccc3c3c4c(c5c6ccccc6n2c5c31)C(=O)NC4",
    "Measurement units": "%",
    "cell viability": 111
  },
  {
    "Molecule": "COc1ccc2cc(-c3[nH]c(-c4ccc([S+](C)[O-])cc4)nc3-c3ccncc3)ccc2c1 (stereo not drawn)",
    "Measurement units": "%",
    "cell viability": 105
  },
  {
    "Molecule": "CC1=CC2=C(O1)C(=C3OC(=O)\\C=C(C)/C3=C2)C",
    "Measurement units": "%",
    "cell viability": 91.5
  },
  {
    "Molecule": "CC1=C(/C=C/C(C)=C/C=C/C(C)=C/C(=O)Nc2ccc(O)cc2)C(C)(C)CCC1",
    "Measurement units": "%",
    "cell viability": 85.5
  },
  {
    "Molecule": "CCC1=C(C)CN(C(=O)NCCc2ccc(S(=O)(=O)NC(=O)N[C@H]3CC[C@H](C)CC3)cc2)C1=O",
    "Measurement units": "%",
    "cell viability": 92.2
  },
  {
    "Molecule": "COc1ccc(-c2c(-c3ccc(O)cc3O)n[nH]c2C)cc1",
    "Measurement units": "%",
    "cell viability": 104
  },
  {
    "Molecule": "COc1ccc([C@@H]2CNC(=O)C2)cc1OC1CCCC1",
    "Measurement units": "%",
    "cell viability": 101
  },
  {
    "Molecule": "CCOP(=O)(OCC)C(C)NC(=O)N(CCCl)N=O (stereo not drawn)",
    "Measurement units": "%",
    "cell viability": 98.1
  },
  {
    "Molecule": "NC12CC3CC(CC(C3)C1)C2",
    "Measurement units": "%",
    "cell viability": 102
  },
  {
    "Molecule": "Cn1c(=O)c2c(ncn2CC(O)CO)n(C)c1=O (stereo not drawn)",
    "Measurement units": "%",
    "cell viability": 96.7
  },
  {
    "Molecule": "N#Cc1c(C2CCNCC2)cc(-c2c(O)cccc2OCC2CC2)nc1N",
    "Measurement units": "%",
    "cell viability": 107
  },
  {
    "Molecule": "CN(C)[C@H]\\1[C@@H]2[C@@H](O)[C@@H]\\3C(=C)C4=C(C(=CC=C4)O)C(=O)C3=C(\\O)[C@@]2(O)C(=O)\\C(=C1O)C(N)=O",
    "Measurement units": "%",
    "cell viability": 97.8
  },
  {
    "Molecule": "O=P(O)(O)C(O)(Cc1cccnc1)P(=O)(O)[O][Na] (stereo not drawn)",
    "Measurement units": "%",
    "cell viability": 51.7
  },
  {
    "Molecule": "OC1=C(C=CC=C1)C2=CC=C(C=C2)C3=CSC4=C3C(=C(/C#N)C(=O)N4)/O",
    "Measurement units": "%",
    "cell viability": 109
  },
  {
    "Molecule": "COc1cc(/C=C/C(=O)CC(=O)/C=C/c2ccc(O)c(OC)c2)ccc1O",
    "Measurement units": "%",
    "cell viability": 114
  },
  {
    "Molecule": "Cc1c(OCC(F)(F)F)ccnc1C[S+]([O-])c1nc2ccccc2[nH]1 (stereo not drawn)",
    "Measurement units": "%",
    "cell viability": 110
  }
]
